- System: Plasmodium berghei (Pb-Luc) exoerythrocytic-stage parasites
- method description: microbe, parasite or virus in culture
- condition summary: read-out: Inhibition% @ 50 uM rep2
Recorded inhibition at 50 µM, one value per entry.
metric name: inhibition at 50 µM

molecule	observed measurement
c1ccc(CNc2nc(Nc3ccccc3)nc3ccccc23)cc1 [MMV006169]	104%
Cc1cc(N2CCN(C3CCCC3)CC2)n2c(nc3ccccc32)c1C#N [MMV006706]	24%
O=C(Nc1ccc(C23CC4CC(CC(c5ccccc5)(C4)C2)C3)cc1)c1cccs1 [MMV007574]	103%
N=c1n(CCN2CCCCC2)c2ccccc2n1CC(=O)c1ccc(Cl)c(Cl)c1 [MMV396723]	102%
Cc1ccc(-c2cc3c(nn2)-c2ccccc2C3=O)cc1 [MMV666021]	89%
COCCNCC(O)Cn1c2ccc(Cl)cc2c2cc(Cl)ccc21 (centres unmarked) [MMV019017]	102%
COc1ccc(C)c2sc(N(Cc3cccnc3)C(=O)c3ccc(C#N)cc3)nc12 [MMV001241]	102%
CCN(CC)CCNc1ncnc2c1[nH]c1ccc(Cl)cc12 [MMV396703]	106%
CC1CC2=C(CC1CNCCCN(C)C)C(C)(C)CCC2 (centres unmarked) [MMV665830]	102%
CC1CCN(Cc2c(O)ccc3cc(-c4nc5ccccc5s4)c(=O)oc23)CC1 [MMV009127]	76%
COc1ccc(-c2nc3cc(Cc4ccc5[nH]c(-c6ccc(OC)cc6)nc5c4)ccc3[nH]2)cc1 [MMV007384]	105%
OC(Cn1nnc2ccccc21)Cn1c2ccc(Br)cc2c2cc(Br)ccc21 (centres unmarked) [MMV666025]	97%
Cc1sc(NC(=O)c2ccccc2)c(C(c2cccs2)N2CCN(c3ccccc3)CC2)c1C (centres unmarked) [MMV396652]	99%
O=C(CCc1ccccc1)c1ccccc1OCC(O)CN1CCCCC1 (centres unmarked) [MMV009015]	100%
